- assayedTarget: T1, MET928 (cMET protein derived from construct 25-928) (human, UniProt P08581 25-928)
- T1 construct: MET ectodomain, residues 1-24 are the leader; produced in Lec 8 cells; background text says the ectodomain is furin-cleaved into alpha (25-307) and beta chains; biotinylated form used in selections; also called MET928 extracellular domain; Met extracellular domain
- T1 sequence (P08581 25-928): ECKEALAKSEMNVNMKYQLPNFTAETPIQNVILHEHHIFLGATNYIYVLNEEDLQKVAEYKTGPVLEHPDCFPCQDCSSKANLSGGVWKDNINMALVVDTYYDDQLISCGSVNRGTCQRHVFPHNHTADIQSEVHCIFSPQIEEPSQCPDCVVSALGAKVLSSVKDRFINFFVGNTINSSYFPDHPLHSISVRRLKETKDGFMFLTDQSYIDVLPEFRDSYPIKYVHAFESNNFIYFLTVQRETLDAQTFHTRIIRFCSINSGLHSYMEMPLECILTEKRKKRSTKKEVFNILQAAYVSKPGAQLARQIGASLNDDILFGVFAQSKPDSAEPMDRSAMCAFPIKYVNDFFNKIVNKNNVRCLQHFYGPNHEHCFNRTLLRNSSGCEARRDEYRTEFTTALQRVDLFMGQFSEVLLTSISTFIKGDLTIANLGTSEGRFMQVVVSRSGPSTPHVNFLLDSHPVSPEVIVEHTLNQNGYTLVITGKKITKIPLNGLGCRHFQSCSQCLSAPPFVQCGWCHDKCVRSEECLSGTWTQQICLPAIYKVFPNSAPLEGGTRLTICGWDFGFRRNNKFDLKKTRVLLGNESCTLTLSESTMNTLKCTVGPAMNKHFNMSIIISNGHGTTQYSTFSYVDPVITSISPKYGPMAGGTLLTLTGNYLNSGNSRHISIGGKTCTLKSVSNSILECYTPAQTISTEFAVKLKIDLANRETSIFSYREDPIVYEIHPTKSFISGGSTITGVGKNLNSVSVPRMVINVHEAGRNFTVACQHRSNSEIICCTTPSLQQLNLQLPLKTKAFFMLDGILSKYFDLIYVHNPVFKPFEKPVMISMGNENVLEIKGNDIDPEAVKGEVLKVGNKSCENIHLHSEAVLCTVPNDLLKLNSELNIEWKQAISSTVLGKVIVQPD
- testSummary: ELISA, soluble scFv
reportedProperty: binding result

112_H1 (scFv, not shown: 6xHis/tri-FLAG tags) scFv: QMQLVQSGAEVKKPGAPVKVSCKVSGYTFTDYYMHWVQQAPGKGLEWMGLVDPEDGETIYAEKFQGRVTITADTSTDTAYMELSSLRSEDTAVYYCATDATTPYWGAAVWGQGTLVTVSSLEGGGGSGGGGSGGGASDIQMTQSPSSLSASVGDRVTITCQASQDISNYLNWYQQKPGRAPKVLIYDASNLETGVPSRFSGSGSGTEFTLTISNLRPDDFATYYCQQGDSFPLTFGGGTKVEIK: binds
111_E10 (scFv, not shown: 6xHis/tri-FLAG tags) scFv: QMQLVQSGAEVKKPGAPVKVSCKVSGYTFTDYYMHWVQQAPGKGLEWMGLVDPEDGETIYAEKFQGRVTITADTSTDTAYMELSSLRSEDTAVYYCATDATTPYWYPYAWGQGTLVTVSSLEGGGGSGGGGSGGGASDIQMTQSPSSLSASVGDRVTITCQASQDISNYLNWYQQKPGRAPKVLIYDASNLETGVPSRFSGSGSGTEFTLTISNLRPDDFATYYCQQGDSFPLTFGGGTKVEIK: binds

Measured values drawn from patent US20150147274A1 for this set.
